experiment: Inhibition of [3H]SP binding to guinea pig lung membranes
For each record, check the reported IC50: if it is below 100 nM write 1, else write 0.

Known results for molecules:
CC(O)C(N)C(=O)N[C@H](Cc1cn(C=O)c2ccccc12)C(=O)N[C@@H](Cc1ccccc1)C(=O)N(C)Cc1ccccc1 (stereo partly drawn)    0
CN(Cc1ccccc1)C(=O)[C@H](Cc1ccccc1)NC(=O)[C@@H](Cc1cn(C=O)c2ccccc12)NC(=O)CC(NC(=O)OC(C)(C)C)C(N)=O (stereo partly drawn)    0
CN(Cc1ccccc1)C(=O)[C@H](Cc1ccccc1)NC(=O)[C@@H](Cc1cn(C=O)c2ccccc12)NC(=O)C(Cc1c[nH]cn1)NC(=O)OC(C)(C)C (stereo partly drawn)    0

*Q* For this molecule, is IC50 lower than 100 nM? CN(Cc1ccccc1)C(=O)[C@H](Cc1ccccc1)NC(=O)[C@@H](Cc1cn(C=O)c2ccccc12)NC(=O)C1CC(O)CN1C(=O)OC(C)(C)C (stereo partly drawn)
*A* 0

*Q* For this molecule, is IC50 lower than 100 nM? CC(O)C(NC(=O)CO)C(=O)N[C@H](Cc1cn(C=O)c2ccccc12)C(=O)N[C@@H](Cc1ccccc1)C(=O)N(C)Cc1ccccc1 (stereo partly drawn)
*A* 1

*Q* For this molecule, is IC50 lower than 100 nM? CC(=O)NC(C(=O)N[C@H](Cc1cn(C=O)c2ccccc12)C(=O)N[C@@H](Cc1ccccc1)C(=O)N(C)Cc1ccccc1)C(C)O (stereo partly drawn)
*A* 1

*Q* For this molecule, is IC50 lower than 100 nM? CCN(CC)CCC(=O)NC(C(=O)N[C@H](Cc1cn(C=O)c2ccccc12)C(=O)N[C@@H](Cc1ccccc1)C(=O)N(C)Cc1ccccc1)C(C)O (stereo partly drawn)
*A* 1
